# Test protocol: Toxicity on single and repeated administration to mice
# Type: in vivo
# Test context: mouse, in vivo, ip, mice, single intraperitoneal administration; read-out: DL50 (average lethal dose)
Quantity measured: LD50 (mg/kg)

>>> df
                                   compound  quantity_measured  quantitative_result
0  O=C(CCBr)N1CC[N+]2(CC1)CC[N+]1(CCN(C(=O)CCBr)CC1)CC2               LD50                 1920
1  OC(CCl)CN1CC[N+]2(CC1)CC[N+]1(CCN(CC(O)CCl)CC1)CC2 (stereo not drawn) [Prospidin, reference compound]               LD50                 1000
2  CN(C)c1nc(NP(=O)(N2CC2)N2CC2)c2c(ncn2C)n1 [Phopurine, reference compound]               LD50                  280
